- Tested Target: renal dehydropeptidase I (Sus scrofa, UniProt P22412)
- Construct: isolated from hog kidneys; from tissue; host or cells: hog kidney
- Sequence (P22412 17-409): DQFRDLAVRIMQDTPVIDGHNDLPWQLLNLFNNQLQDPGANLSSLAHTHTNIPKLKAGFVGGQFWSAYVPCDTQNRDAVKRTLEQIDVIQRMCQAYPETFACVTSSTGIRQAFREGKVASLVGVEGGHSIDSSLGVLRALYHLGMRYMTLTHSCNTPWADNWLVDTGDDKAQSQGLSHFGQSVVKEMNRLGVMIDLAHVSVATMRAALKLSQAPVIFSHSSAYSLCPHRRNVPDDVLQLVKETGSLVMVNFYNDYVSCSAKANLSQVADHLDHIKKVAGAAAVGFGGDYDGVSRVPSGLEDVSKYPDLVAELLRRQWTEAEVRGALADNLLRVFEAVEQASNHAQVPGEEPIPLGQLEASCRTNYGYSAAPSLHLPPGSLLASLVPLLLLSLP
- Method: in vitro screen: inhibition of hydrolysis of glycyldehydrophenylalanine (GDP) by solubilized renal dipeptidase from hog kidneys (renal dehydropeptidase I inhibition)
- Type: biochemical
- Assay Context: Table I, structure II (olefins); GDP 0.05 mM, 50 mM MOPS pH 7.1, 37° C., 275 nm
pKi: −log10 of the molar value.
Measured Attribute: pKi

                                   compound  observed
0  CC(C)/C=C(\CP(=O)(O)[C@@H](N)CC1CCCCC1)C(=O)O      9.27
1  CCCCC/C=C(\CP(=O)(O)C(N)CC1CCCCC1)C(=O)O (stereo not drawn)      8.51
2  CCCC/C=C(\CP(=O)(O)C(N)CC(C)C)C(=O)O (stereo not drawn)      8.80
3  NC(CC1CCCCC1)P(=O)(O)C/C(=C\C1CCCCC1)C(=O)O (stereo not drawn)      9.05
4  N[C@@H](CC1CCCCC1)P(=O)(O)C/C(=C\C1CCCCC1)C(=O)O      9.28
5  CCCCC/C=C(\CP(=O)(O)C(N)Cc1ccccc1)C(=O)O (stereo not drawn)      7.17
6  N[C@@H](CC1CCCCC1)P(=O)(O)C/C(=C\CC1CCCC1)C(=O)O      9.07
7  CCCCC/C=C(\CP(=O)(O)C(N)CCCCC)C(=O)O (stereo not drawn)      8.85
8  CCCCCC(N)P(=O)(O)C/C(=C\C1CCCCC1)C(=O)O (stereo not drawn)      9.30

The measurements presented in this section are drawn from patent US4962097A.
